Molecular target: T1, human galectin-10-His (recombinant human galectin-10 with TEV-cleavable N-terminal His-tag) (human)
T1 construct: SEC-MALLS: dimer in solution; also called Gal10-His; humanGal10-His
T1 chain: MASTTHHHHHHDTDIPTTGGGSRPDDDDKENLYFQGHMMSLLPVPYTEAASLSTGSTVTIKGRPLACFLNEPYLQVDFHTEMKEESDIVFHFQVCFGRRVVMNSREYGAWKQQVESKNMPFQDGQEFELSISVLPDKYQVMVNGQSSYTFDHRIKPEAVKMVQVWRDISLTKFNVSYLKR
Assay: ELISA, Fab on coated galectin-10-His
pEC50: −log10 of the molar value.
PROPERTY_MEASURED: pEC50

[[record]]
binder = "1D11 Fab (Fab, V domains shown, VH on human CH1 constant domain (with part of the hinge region), VL on human lambda constant domain; also called Fab 1D11; Fab-1D11) VH: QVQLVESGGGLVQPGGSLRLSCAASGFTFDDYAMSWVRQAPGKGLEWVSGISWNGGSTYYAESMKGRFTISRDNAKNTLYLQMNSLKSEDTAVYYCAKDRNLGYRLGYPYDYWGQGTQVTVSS VL: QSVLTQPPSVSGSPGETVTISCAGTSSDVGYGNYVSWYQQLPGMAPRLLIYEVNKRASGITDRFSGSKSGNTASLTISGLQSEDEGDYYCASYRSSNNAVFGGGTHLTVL"
observed_measurement = 8.80

[[record]]
binder = "6F05 Fab (Fab, V domains shown, VH on human CH1 constant domain (with part of the hinge region), VL on human lambda constant domain; also called 6F5; Fab 6F5) VH: QLQLVESGGGLVQPGGSLRLSCAASGFTFSSYAMSWVRQAPGKGLEWVSAINSGGGSTSYADSVKGRFTISRDNAKNTLYLQMNSLKPEDTAVYYCATPGDRLWYYRYDYWGQGTQVTVSS VL: QAGLTQPPSVSGTLGKAVTISCAGTSSDIGYGNYVSWYQQLPGTAPKLLIYKVSRRASGVPDRFSGSKSGNTASLSISGLQSEDEADYYCASYRYRNNVVFGGGTHLTVL"
observed_measurement = 7.57

[[record]]
binder = "4E08 Fab (Fab, V domains shown, VH on human CH1 constant domain (with part of the hinge region), VL on human lambda constant domain; also called 4E8; Fab 4E8) VH: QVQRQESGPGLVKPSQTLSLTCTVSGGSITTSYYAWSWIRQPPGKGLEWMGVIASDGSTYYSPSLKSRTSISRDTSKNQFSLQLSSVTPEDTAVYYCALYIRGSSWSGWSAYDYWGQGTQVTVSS VL: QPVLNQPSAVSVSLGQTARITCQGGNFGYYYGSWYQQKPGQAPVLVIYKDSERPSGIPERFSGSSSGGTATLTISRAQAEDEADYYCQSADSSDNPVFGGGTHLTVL"
observed_measurement = 7.59

[[record]]
binder = "1C09 Fab (Fab, V domains shown, VH on human CH1 constant domain (with part of the hinge region), VL on human lambda constant domain; also called 1C9; Fab 1C09) VH: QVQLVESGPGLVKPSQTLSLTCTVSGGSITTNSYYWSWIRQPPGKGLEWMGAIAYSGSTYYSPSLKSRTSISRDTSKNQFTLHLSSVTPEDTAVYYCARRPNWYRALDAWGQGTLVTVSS VL: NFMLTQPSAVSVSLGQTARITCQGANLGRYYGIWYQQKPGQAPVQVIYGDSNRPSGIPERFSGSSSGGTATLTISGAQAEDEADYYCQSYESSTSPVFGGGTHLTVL"
observed_measurement = 8.72

